- Assay system: δ opioid receptor (DOP) (Homo sapiens)
Non-standard residues stand in square brackets, D forms with d. Residues, ends and D or L forms follow the SMILES beside them. Dmt = Cc1cc(O)cc(C)c1C[C@H](N)C(=O)O
Measured parameter: IC50 (nM)
Your answer is read as nM, so omit the unit and give the number.

As a guide, the following entries are already answered.
compound="Cc1cc(O)cc(C)c1C[C@H](N)C(=O)N[C@H](CCCNC(=N)N)C(=O)N[C@@H](Cc1ccccc1-c1ccc(C(F)(F)F)cc1)C(=O)NCC(N)=O [Compound 11, Dmt-D-Arg-Phe(2-(4-CF3-phenyl))-Gly-NH2]" assay_system="δ opioid receptor (DOP) (Homo sapiens)" recorded_number=39.2
compound="Cc1cc(O)cc(C)c1C[C@H](N)C(=O)N[C@H](CCCNC(=N)N)C(=O)N[C@@H](Cc1ccccc1-c1ccc(Cl)cc1)C(=O)NCC(N)=O [Compound 13, Dmt-D-Arg-Phe(2-(4-Cl-phenyl))-Gly-NH2]" assay_system="δ opioid receptor (DOP) (Homo sapiens)" recorded_number=346
compound="Cc1cc(O)cc(C)c1C[C@H](N)C(=O)N[C@H](C)C(=O)N[C@@H](Cc1ccccc1)C(=O)NCC(N)=O [Compound 20, Dmt-D-Ala-Phe-Gly-NH2] (H-[Dmt][dA]FG-NH2)" assay_system="δ opioid receptor (DOP) (Homo sapiens)" recorded_number=22.6

For the next question, use this compound.
stdin: Param item = Cc1cc(O)cc(C)c1C[C@H](N)C(=O)N[C@H](CCCNC(=N)N)C(=O)N[C@@H](Cc1ccccc1)C(=O)NCC(N)=O [Compound 19, Dmt-D-Arg-Phe-Gly-NH2] (H-[Dmt][dR]FG-NH2) ; retrieve measured IC50.
stdout: 14
